Where these numbers come from: PubChem BioAssay (NCI)

System: ACHN renal
procedure summary: NCI tumour cell line growth inhibition, 48 h
readout type: TGI

{"columns": ["substance smiles", "tgt", "TGI"],
 "data": [
  ["COC(=O)[C@@H]1C[C@]2(Br)c3ccccc3N(S(=O)(=O)c3ccccc3)[C@@H]2N1C(=O)OC", "ACHN renal", "> 100 µM"]
]}

For every listed record, write down its TGI.
1. Cc1ccc(/C=N/NS(=O)(=O)c2ccccc2)cc1C
2. C=CCCCN1CCCCC1=S

result:
> 100 µM
> 100 µM

###

Test system: SK-MEL-28 melanoma
procedure summary: NCI tumour cell line growth inhibition, 48 h
Exercise: for every item that follows, state its recorded TGI.

// below: answered compounds
{"columns": ["compound", "TGI"],
 "data": [
  ["COc1ccc2nc3c(cc2c1)C(=O)CC(c1ccccc1)C3 (stereo not given)", "> 100 µM"],
  ["CN(CCNC(=O)c1nn(-c2ccc(Cl)cc2Cl)c2c1Cc1ccccc1-2)CCNC(=O)c1nn(-c2ccc(Cl)cc2Cl)c2c1Cc1ccccc1-2", "4.97 µM"],
  ["O=C(Nc1ccccc1Cl)c1ccc(NC2=C(Cl)C(=O)N(C3CCCCC3)C2=O)cc1", "49.6 µM"]
]}

For every listed record, write down its TGI.
1. CC12C3CC4C5CC(C(C53)[C@@H]1NCc1ccccc1)C42 (stereo not given in full)
2. CCc1cccc(C(C)CC)c1NC(=O)C(=O)Cc1nc2ccccc2o1 (stereo not given)
3. COC(=O)/C=C\C(C#N)(C#N)N=Cc1cccs1

result:
["> 100 µM", "> 50 µM", "26 µM"]

For every listed record, write down its TGI.
1. CC1SC2=NC3=C(c4ccccc4C3=O)C(c3ccccc3Cl)N2C1=O (stereo not given)
2. C1C[OH+]CCNCC[OH+]CC[OH+]CCN1.N.[Cl-].[Pt+4]
3. O=c1oc2cc(O)ccc2c2oc3cc(O)ccc3c12
4. Cn1ccc(=NS(=O)(=O)c2ccccc2)cc1

result:
["> 100 µM", "> 100 µM", "> 125 µM", "> 100 µM"]

For every listed record, write down its TGI.
1. CCCCc1nc(C)oc1C(C)C
2. O=c1oc2ccc(Cl)cc2c(=O)n1-c1ccc(F)cc1F
3. c1cc(C2=NCCO2)c2ccsc2c1
4. COC(=O)C1=C(C(=O)ON)[C@@H]2C=C[C@@]1([C@@H](Cc1ccccc1)Nc1ccccc1)O2
5. O=C(c1ccccc1)N(CCCCNC(=O)C(F)(F)F)CCCNC(=O)C(F)(F)F

result:
["> 100 µM", "10.5 µM", "> 100 µM", "3.54 µM", "> 100 µM"]

###

Test system: IGROV1 ovarian
procedure summary: NCI tumour cell line growth inhibition, 48 h
readout type: TGI

// below: answered molecules
{"columns": ["molecule", "tgt", "readout type", "measured"],
 "data": [
  ["COc1ccc(C(=O)c2nc3ccccc3nc2N2CCN(c3ccccc3)CC2)cc1OC", "IGROV1 ovarian", "TGI", "> 100 µM"],
  ["CCCCC(OC(=O)c1ccc(N)cc1)C(=O)Nc1nc(CC(=O)OCC)cs1 (stereo unspecified)", "IGROV1 ovarian", "TGI", "> 100 µM"],
  ["CC(=O)OCCCCN1C(=O)CSc2ccccc21", "IGROV1 ovarian", "TGI", "> 100 µM"]
]}

For every listed record, write down its TGI.
1. c1ccc(SCCc2ccncc2)cc1
2. COc1cc(NC(C)=O)ccc1C(=O)N/N=C/c1ccco1
3. O=[N+]([O-])c1cc(I)cc(/C=N/NS(=O)(=O)c2ccc(Cl)cc2)c1O
4. CC1(O)C2(c3ccccc3)CCC[N+]1(C)CC2 (stereo unspecified)

result:
["> 100 µM", "> 100 µM", "45.1 µM", "> 100 µM"]
